Assign Kd to each entry below.
biological target: T1, ENAH EVH1 domain (monomeric, wild type) (human, UniProt Q03173 1-111 (mouse entry)); test: BLI, steady state; SUMO-peptide immobilised, EVH1 monomer in solution
T1 construct: ENAH residue numbers in the text count from the Met at position 25 of this entry; also called ENAH EVH1 WT; Mena EVH1 WT
T1 sequence (Q03173 other isoform, or with tags, fused parts or gaps limits assumed): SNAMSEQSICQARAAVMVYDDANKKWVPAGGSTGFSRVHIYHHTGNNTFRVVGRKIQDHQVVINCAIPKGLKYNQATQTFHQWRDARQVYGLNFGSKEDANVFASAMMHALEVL
Numbers only, in µM.

binder: SUMO-ActA (ActA 36-mer peptide fused to SUMO) (biotinylated (BAP tag), Control peptide used in BLI and ITC; also called ActA peptide) peptide: MAGGLNDIFEAQKIEWHEDTGGSSHHHHHHGSGSGSDSEVNQEAKPEVKPEVKPETHINLKVSDGSSEIFFKIKKTTPLRRLMEAFAKRQGKEMDSLTFLYDGIEIQADQTPEDLDMEDNDIIEAHREQIGGGFNAPATSEPSSFEFPPPPTEDELEIIRETASSLDS
recorded_value: 5.21

Required: Kd, one value per binder below.
1. LPP 36mer peptide (biotinylated (BAP tag), Tested as a BAP-6xHis-SUMO-peptide fusion in BLI and ITC) peptide: MAGGLNDIFEAQKIEWHEDTGGSSHHHHHHGSGSGSDSEVNQEAKPEVKPEVKPETHINLKVSDGSSEIFFKIKKTTPLRRLMEAFAKRQGKEMDSLTFLYDGIEIQADQTPEDLDMEDNDIIEAHREQIGGSGSGKQPGGEGDFLPPPPPPLDDSSALPSISGNFPPPPPL
2. NHSL1 36mer peptide (biotinylated (BAP tag), Tested as a BAP-6xHis-SUMO-peptide fusion in BLI and ITC) peptide: MAGGLNDIFEAQKIEWHEDTGGSSHHHHHHGSGSGSDSEVNQEAKPEVKPEVKPETHINLKVSDGSSEIFFKIKKTTPLRRLMEAFAKRQGKEMDSLTFLYDGIEIQADQTPEDLDMEDNDIIEAHREQIGGSGSGADRSPFLPPPPPVTDCSQGSPLPHSPVFPPPPPEAL
3. Zyxin 36-mer peptide (biotinylated (BAP tag), Tested as a biotinylated BAP-6xHis-SUMO-peptide fusion) peptide: MAGGLNDIFEAQKIEWHEDTGGSSHHHHHHGSGSGSDSEVNQEAKPEVKPEVKPETHINLKVSDGSSEIFFKIKKTTPLRRLMEAFAKRQGKEMDSLTFLYDGIEIQADQTPEDLDMEDNDIIEAHREQIGGSGSGALGGAFPPPPPPIEESFPPAPLEEEIFPSPPPPPEE
4. PCARE 36-residue peptide (PCARE813-848) (biotinylated (BAP tag), Tested in BLI as a biotinylated BAP-6xHis-SUMO-peptide fusion; also called PCARE 36-mer) peptide: MAGGLNDIFEAQKIEWHEDTGGSSHHHHHHGSGSGSDSEVNQEAKPEVKPEVKPETHINLKVSDGSSEIFFKIKKTTPLRRLMEAFAKRQGKEMDSLTFLYDGIEIQADQTPEDLDMEDNDIIEAHREQIGGSGSGAAKSEELSCEMEGNLEHLPPPPMEVLMDKSFASLES

Result:
[4.03, 8.56, 4.79, 0.192]
